Entries and their remaining activity at 0.1 µM
molecular target: CB2 (Homo sapiens, UniProt P34972); experiment: cAMP production in forskolin-stimulated hCB2-expressing CHO cells; assay type: cell-based; set-up: expressed in transfected cells; host or cells: CHO cells; conditions: CHO; Forskolin (5 μM) + compound 0.1 μM; read-out: Amount of cAMP production compared to control (ratio (%))
Sequence (P34972 whole entry): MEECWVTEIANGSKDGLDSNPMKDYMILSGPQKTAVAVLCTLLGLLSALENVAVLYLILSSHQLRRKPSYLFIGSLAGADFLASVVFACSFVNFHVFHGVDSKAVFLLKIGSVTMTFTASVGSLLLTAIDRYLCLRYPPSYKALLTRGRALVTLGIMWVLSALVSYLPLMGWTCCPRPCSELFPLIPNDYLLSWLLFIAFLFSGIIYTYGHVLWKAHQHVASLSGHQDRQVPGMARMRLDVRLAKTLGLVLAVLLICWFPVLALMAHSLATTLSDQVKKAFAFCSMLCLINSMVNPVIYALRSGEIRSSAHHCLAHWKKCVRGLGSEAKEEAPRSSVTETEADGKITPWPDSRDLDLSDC
Observation Type: remaining activity at 0.1 µM

>>> print(df.to_string())
                                   compound  result
0  CCCCCOc1c(OC)ccc2cc(C(=O)NCCc3ccncc3)c(=O)n(C)c12 [F]    218%
1  CCCCCOc1c(OC)ccc2c1CC(=O)N(CCCN1CCOCC1)C2=O [I]    125%
2  CCCCCOc1c(OC)ccc2cc(C(=O)NCCN3CCOCC3)c(=O)[nH]c12 [B]    430%
3  CCCCOc1c(OC)ccc2cc(C(=O)NCCc3ccc(F)cc3)c(=O)[nH]c12 [C]    212%
